Data credit: the supplement of paper PMC10567573

B1: FAM164C (parent)
chain: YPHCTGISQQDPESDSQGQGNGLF

# Variants of: B1
# Assay name: protein stability index of a GFP-peptide fusion (GPS, HEK-293T) (PSI 1-6); higher = more stable;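 note: lentivirally expressed fusions sorted by FACS into six bins by GFP to DsRed ratio, PSI derived from sequencing read proportions per bin multiplied by bin number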
# Measurement conditions: c terminus: a fixed tail appended
List of protein stability index values.
Value type: protein stability index

1) YPHCTGISQIDPESDSQGQGNGLF [Q10I] | 3.64
2) YPHCTGISQQYPESDSQGQGNGLF [D11Y] | 2.94
3) YPHCTGISQQDPESDSQCQGNGLF [G18C] | 3.9
4) YPHCTGITQQDPESDSQGQGNGLF [S8T] | 3.74
5) YPHCTGISQQDPESDSQGQGNGTF [L23T] | 4.71
6) YPHCHGISQQDPESDSQGQGNGLF [T5H] | 3.2
7) YPHCTGISQQDPESDSQGQWNGLF [G20W] | 2.35
8) YPHCTGISYQDPESDSQGQGNGLF [Q9Y] | 3.11
9) YPHCTQISQQDPESDSQGQGNGLF [G6Q] | 3.58
10) YPHCTGISQQDPEKDSQGQGNGLF [S14K] | 4.23
11) YPHRTGISQQDPESDSQGQGNGLF [C4R] | 4.06
12) YPHCTGIRQQDPESDSQGQGNGLF [S8R] | 3.57
13) YPPCTGISQQDPESDSQGQGNGLF [H3P] | 3.32
14) YRHCTGISQQDPESDSQGQGNGLF [P2R] | 4.71
15) YPHCTGISQQDPESDSQGQGVGLF [N21V] | 3.54
16) YPHETGISQQDPESDSQGQGNGLF [C4E] | 4.82
